# System: normal primary NK cells, pool 1 (3 donors), resting (IL-2 0 ng/mL);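 also: normalised to DMSO-only wells as negative and benzethonium chloride as positive control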
# procedure.text: percent inhibition of viability; higher = more inhibition
# condition.info: 72 h; 0.1 nM
Each item that follows carries a reported percent inhibition of viability.
State just the number; it will be interpreted in %.

Reference set (3 entries):
compound	target.of.assay	value.unit	percent inhibition of viability
CCc1cc2c(cc1N1CCC(N3CCOCC3)CC1)C(C)(C)c1[nH]c3cc(C#N)ccc3c1C2=O [Alectinib] (max concentration tested 1000 nM)	normal primary NK cells, pool 1 (3 donors), resting (IL-2 0 ng/mL)	%	-6.37
CC(C)C[C@H](NC(=O)[C@H](Cc1ccccc1)NC(=O)c1cnccn1)B(O)O [Bortezomib] (max concentration tested 1000 nM)	normal primary NK cells, pool 1 (3 donors), resting (IL-2 0 ng/mL)	%	-34.8
Cc1ccc(F)c(NC(=O)Nc2ccc(-c3cccc4[nH]nc(N)c34)cc2)c1 [Linifanib] (max concentration tested 1000 nM)	normal primary NK cells, pool 1 (3 donors), resting (IL-2 0 ng/mL)	%	-0.38

What reported percent inhibition of viability corresponds to CCn1cc(-c2ccnc3[nH]c(-c4cccc(CN(C)C)c4)cc23)c(-c2ccc(NC(=O)N(C)C)cc2)n1 (max concentration tested 1000 nM) on normal primary NK cells, pool 1 (3 donors), resting (IL-2 0 ng/mL)?
10.8

What reported percent inhibition of viability corresponds to CC[C@H](NC(=O)[C@H](C)NC)C(=O)N1C[C@@H](O)C[C@H]1Cc1c(-c2[nH]c3cc(F)ccc3c2C[C@@H]2C[C@H](O)CN2C(=O)[C@H](CC)NC(=O)[C@H](C)NC)[nH]c2cc(F)ccc12 [Birinapant] (max concentration tested 1000 nM) on normal primary NK cells, pool 1 (3 donors), resting (IL-2 0 ng/mL)?
-23.1

The measurements presented in this section are drawn from the supplement of paper PMC5908809.
